assayed-system: human κ opioid receptor (Homo sapiens)
protocol-summary: κ-opioid receptor [35S]GTPγS functional assay, U-2 OS cells
Assay type: biochemical
Set-up: expressed in transfected cells; host or cells: U-2 OS cells (in-house membranes)
attribute-measured: EC50 (nM)
Note: unit nM is implicit; provide only the numeric part.

CC[C@H](C)C(=O)N[C@H]1C[C@@]2(O)[C@H]3Cc4ccc(O)cc4[C@@]2(CCN3CC2CC2)C[C@H]1O    35.6
O=C(N[C@H]1C[C@@]2(O)[C@H]3Cc4ccc(O)cc4[C@@]2(CCN3CC2CC2)C[C@H]1O)c1ccccc1    39.2
CC(C)CN[C@@H]1C[C@@]2(O)[C@H]3Cc4ccc(O)cc4[C@@]2(CCN3CC2CC2)C[C@@H]1O    0.81
CC(C)C[C@H]1C[C@@]2(O)[C@H]3Cc4ccc(O)cc4[C@@]2(CCN3CC2CC2)C[C@H]1O    55.5

Let me check: O=C(N[C@H]1C[C@@]2(O)[C@H]3Cc4ccc(O)cc4[C@@]2(CCN3CC2CC2)C[C@H]1O)C1CC1 , system human κ opioid receptor (Homo sapiens), measured EC50 is 48.3

Let me check: N=C(N)NCCCCN[C@@H]1CC[C@@]2(O)[C@H]3Cc4ccc(O)cc4[C@@]2(CCN3CC2CC2)C1 , system human κ opioid receptor (Homo sapiens), measured EC50 is 15

Let me check: CC(C)CCCC(=O)N[C@H]1C[C@@]2(O)[C@H]3Cc4ccc(O)cc4[C@@]2(CCN3CC2CC2)CC1O (stereo partly shown) , system human κ opioid receptor (Homo sapiens), measured EC50 is 38.8

###

List of Ki tested on human κ opioid receptor (Homo sapiens).
Note: unit nM is implicit; provide only the numeric part.

COc1ccc2c(c1)[C@]13CCN(CC4CC4)[C@H](C2)[C@]1(O)C[C@H](CO)[C@H](O)C3    7300

Input COc1ccc2c(c1)[C@]13CCN(CC4CC4)[C@H](C2)[C@]1(O)C[C@H](C)[C@H](O)C3 . Output Ki: 3010

Input CCC(=O)N[C@H]1C[C@@]2(O)[C@H]3Cc4ccc(O)cc4[C@@]2(CCN3CC2CC2)C[C@H]1O . Output Ki: 7.19

Input CC(=O)N[C@H]1C[C@@]2(O)[C@H]3Cc4ccc(O)cc4[C@@]2(CCN3CC2CC2)C[C@H]1O . Output Ki: 54.8

Input N=C(N)NCCN[C@@H]1CC[C@@]2(O)[C@H]3Cc4ccc(O)cc4[C@@]2(CCN3CC2CC2)C1 . Output Ki: 0.29

Input CN(C)[C@H]1CC[C@@]2(O)[C@H]3Cc4ccc(O)cc4[C@@]2(CCN3CC2CC2)C1 . Output Ki: 0.057

Input N=C(N)NCC(=O)N[C@@H]1CC[C@@]2(O)[C@H]3Cc4ccc(O)cc4[C@@]2(CCN3CC2CC2)C1 . Output Ki: 3.23

###

assayed-system: μ-opioid receptor (Homo sapiens)
protocol-summary: μ-opioid receptor [35S]GTPγS functional assay, U-2 OS cells
Format: biochemical
Parameters: host or cells: U-2 OS cells
Recorded EC50 by entry
Note: unit nM is implicit; provide only the numeric part.

CCC(=O)N[C@H]1C[C@@]2(O)[C@H]3Cc4ccc(O)cc4[C@@]2(CCN3CC2CC2)C[C@H]1O    95
COc1ccc2c(c1)[C@@]13CC[C@H](NCC(C)C)C[C@@]1(O)[C@@H](C2)N(CC1CC1)CC3    674
Oc1ccc2c(c1)[C@]13CCN(CC4CC4)[C@H](C2)[C@]1(O)C[C@@H](N1CCCC1)[C@@H](O)C3    1.27

Let me check: COc1ccc2c(c1)[C@@]13CC[C@H](NC(=O)C(C)C)C[C@@]1(O)[C@@H](C2)N(CC1CC1)CC3 , system μ-opioid receptor (Homo sapiens), measured EC50 is 72

Let me check: CC(=O)N[C@H]1CC[C@]23CCN(CC4CC4)[C@H](Cc4ccc(O)cc42)[C@]3(O)C1 , system μ-opioid receptor (Homo sapiens), measured EC50 is 0.61

Let me check: N=C(N)NCCCN[C@@H]1CC[C@@]2(O)[C@H]3Cc4ccc(O)cc4[C@@]2(CCN3CC2CC2)C1 , system μ-opioid receptor (Homo sapiens), measured EC50 is 41.5

###

assayed-system: human κ opioid receptor (Homo sapiens, UniProt P41145)
Sequence (P41145 whole entry): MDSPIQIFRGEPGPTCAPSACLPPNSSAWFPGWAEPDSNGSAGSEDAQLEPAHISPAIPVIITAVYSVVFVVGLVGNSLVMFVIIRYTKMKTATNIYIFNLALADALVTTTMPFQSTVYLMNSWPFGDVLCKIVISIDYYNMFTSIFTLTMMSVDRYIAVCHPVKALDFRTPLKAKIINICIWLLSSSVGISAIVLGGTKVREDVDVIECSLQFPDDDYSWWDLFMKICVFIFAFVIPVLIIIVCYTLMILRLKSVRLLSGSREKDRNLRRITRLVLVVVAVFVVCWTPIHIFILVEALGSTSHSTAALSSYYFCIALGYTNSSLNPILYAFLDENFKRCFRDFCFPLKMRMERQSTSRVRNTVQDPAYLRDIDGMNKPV
protocol-summary: κ-opioid receptor [35S]GTPγS functional assay, U-2 OS cells
Format: biochemical
Design: expressed in transfected cells; host or cells: U-2 OS cells (in-house membranes)
condition-set: U2-OS cells; relative to U69,593
Procedure: Membranes from recombinant HEK-293 cells, CHO or U-2 OS cells expressing the recombinant human K opioid receptor (K) were prepared by lysing cells in ice cold hypotonic buffer (2.5 mM MgCl2, 50 mM HEPES, pH 7.4) (10 mL/10 cm dish) followed by homogenization with a tissue grinder/Teflon pestle. Functional [^35S]GTPγS binding assays were conducted as follows. […] Fifty μl/well scintillation cocktail (Perkin Elmer, Shelton, Conn.) was added and plates were counted in a Packard Top-Count for 1 min/well. […]
attribute-measured: Emax (%)
Note: unit % is implicit; provide only the numeric part.

The cases that follow already have their Emax on record.
CCC(=O)N[C@H]1C[C@@]2(O)[C@H]3Cc4ccc(O)cc4[C@@]2(CCN3CC2CC2)C[C@H]1O [Compound 56]    105
CN[C@@H]1C[C@@]2(O)[C@H]3Cc4ccc(O)cc4[C@@]2(CCN3CC2CC2)C[C@@H]1O [Compound 35]    97.3
CC(C)CCCC(=O)N[C@H]1C[C@@]2(O)[C@H]3Cc4ccc(O)cc4[C@@]2(CCN3CC2CC2)CC1O (stereo partly drawn) [Compound 63]    84.3

Lab note: next compound to report on.
Input COc1ccc2c(c1)[C@@]13CCC(=O)C[C@@]1(O)[C@@H](C2)N(CC1CC1)CC3 [Compound 31] . Output Emax: 108

###

assayed-system: μ-opioid receptor (Homo sapiens)
protocol-summary: μ-opioid receptor [35S]GTPγS functional assay, U-2 OS cells
Format: biochemical
Design: host or cells: U-2 OS cells
condition-set: U2-OS cells; relative to DAMGO
attribute-measured: Emax (%)
Note: unit % is implicit; provide only the numeric part.

The cases that follow already have their Emax on record.
N=C(N)NCCN[C@H]1CC[C@]23CCN(CC4CC4)[C@H](Cc4ccc(O)cc42)[C@]3(O)C1 [Compound 32]    5.33
O=C1C=C2[C@H]3Cc4ccc(O)cc4[C@]2(CC1)CCN3CC1CC1 [Compound 68]    31.3
COc1ccc2c(c1)[C@@]13CC[C@H](NC(=O)C(C)C)C[C@@]1(O)[C@@H](C2)N(CC1CC1)CC3 [Compound 45]    71

Lab note: next compound to report on.
Input CC(C)CC(=O)N[C@H]1C[C@@]2(O)[C@H]3Cc4ccc(O)cc4[C@@]2(CCN3CC2CC2)C[C@H]1O [Compound 60] . Output Emax: 25.3

###

assayed-system: μ-opioid receptor (Homo sapiens, UniProt P35372)
Sequence (P35372 whole entry, species assumed): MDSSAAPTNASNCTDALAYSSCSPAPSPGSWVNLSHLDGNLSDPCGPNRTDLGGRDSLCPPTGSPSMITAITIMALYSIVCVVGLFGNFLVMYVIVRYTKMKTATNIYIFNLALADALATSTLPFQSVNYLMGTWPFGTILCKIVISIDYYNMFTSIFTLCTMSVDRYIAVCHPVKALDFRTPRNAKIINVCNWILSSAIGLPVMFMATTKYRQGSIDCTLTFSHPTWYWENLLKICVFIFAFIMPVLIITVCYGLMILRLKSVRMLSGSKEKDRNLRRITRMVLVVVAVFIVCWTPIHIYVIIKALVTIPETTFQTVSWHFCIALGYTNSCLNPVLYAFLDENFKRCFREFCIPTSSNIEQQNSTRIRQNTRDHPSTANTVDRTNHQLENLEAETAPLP
protocol-summary: μ-opioid receptor [35S]GTPγS functional assay, HEK-293 or CHO cells
Assay type: biochemical
condition-set: HEK-293 or CHO cells; relative to DAMGO
attribute-measured: Emax (%)
Note: unit % is implicit; provide only the numeric part.

COc1ccc2c(c1)[C@@]13CC[C@H](NC(=O)C(C)C)C[C@@]1(O)[C@@H](C2)N(CC1CC1)CC3    15.3
Oc1ccc2c(c1)[C@]13CCN(CC4CC4)[C@H](C2)[C@]1(O)C[C@H](Cc1ccccc1)[C@H](O)C3    1
CN(C)[C@H]1CC[C@@]2(O)[C@H]3Cc4ccc(O)cc4[C@@]2(CCN3CC2CC2)C1    2.5
COc1ccc2c(c1)[C@]13CCN(C)[C@H](C2)[C@H]1[C@H](O)C[C@H](OCCO)C3    31.8
COc1ccc2c(c1)[C@]13CCN(C)[C@H](C2)[C@H]1[C@H](O)C[C@@H](OCCO)C3    24.2
CC(C)CN[C@@H]1C[C@@]2(O)[C@H]3Cc4ccc(O)cc4[C@@]2(CCN3CC2CC2)C[C@@H]1O    1

Input NCCN[C@@H]1CC[C@@]2(O)[C@H]3Cc4ccc(O)cc4[C@@]2(CCN3CC2CC2)C1 . Output Emax: 6.33

Input CCN[C@H]1C[C@@]2(O)[C@H]3Cc4ccc(O)cc4[C@@]2(CCN3C)C[C@H]1O . Output Emax: 3.62

###

List of pKi tested on μ-opioid receptor (Homo sapiens, UniProt P35372).
Answer as the number alone; pKi is minus log10 of concentration in mol/L.

The cases that follow already have their pKi on record.
CC(=O)N[C@H]1C[C@@]2(O)[C@H]3Cc4ccc(O)cc4[C@@]2(CCN3CC2CC2)C[C@H]1O [Compound 55]    6.70
N=C(N)NCCC(=O)N[C@@H]1CC[C@@]2(O)[C@H]3Cc4ccc(O)cc4[C@@]2(CCN3CC2CC2)C1 [Compound 21]    5.99
NCCCN[C@@H]1CC[C@@]2(O)[C@H]3Cc4ccc(O)cc4[C@@]2(CCN3CC2CC2)C1 [Compound 13]    7.10
CCC(=O)N[C@H]1C[C@@]2(O)[C@H]3Cc4ccc(O)cc4[C@@]2(CCN3CC2CC2)C[C@H]1O [Compound 56]    7.27
CCC(=O)N[C@H]1C[C@@]2(O)[C@H]3Cc4ccc(O)cc4[C@@]2(CCN3CC2CC2)C[C@@H]1O [Compound 57]    7.35

Input N=C(N)NCCCN[C@@H]1CC[C@@]2(O)[C@H]3Cc4ccc(O)cc4[C@@]2(CCN3CC2CC2)C1 [Compound 15] . Output pKi: 7.27

Input N=C(N)Nc1ccc(N[C@@H]2CC[C@@]3(O)[C@H]4Cc5ccc(O)cc5[C@@]3(CCN4CC3CC3)C2)cc1 [Compound 24] . Output pKi: 8.07
